From: patent US20170101470A1

- System: T1, human MCAM expressed on CHO cells (full length human MCAM gene) (human, UniProt P43121 24-646)
- T1 construct: also called hMCAM expressing CHO cells; CD146
- T1 chain: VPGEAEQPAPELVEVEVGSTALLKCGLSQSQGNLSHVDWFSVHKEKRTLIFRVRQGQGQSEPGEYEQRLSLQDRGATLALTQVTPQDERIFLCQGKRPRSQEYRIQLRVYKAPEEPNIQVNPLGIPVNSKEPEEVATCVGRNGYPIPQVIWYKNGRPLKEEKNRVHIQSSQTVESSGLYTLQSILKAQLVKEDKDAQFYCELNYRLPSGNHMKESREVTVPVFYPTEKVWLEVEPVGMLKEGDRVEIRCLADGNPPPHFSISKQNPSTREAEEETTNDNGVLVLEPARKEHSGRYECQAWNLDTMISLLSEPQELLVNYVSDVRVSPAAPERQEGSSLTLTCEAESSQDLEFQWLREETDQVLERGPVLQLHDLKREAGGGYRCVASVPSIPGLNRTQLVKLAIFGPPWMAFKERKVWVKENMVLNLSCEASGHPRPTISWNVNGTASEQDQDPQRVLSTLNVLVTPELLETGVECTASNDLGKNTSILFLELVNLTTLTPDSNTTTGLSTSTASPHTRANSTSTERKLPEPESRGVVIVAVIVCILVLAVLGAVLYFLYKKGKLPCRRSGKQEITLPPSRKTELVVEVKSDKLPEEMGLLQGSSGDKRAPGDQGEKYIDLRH
- Method Description: laminin/FACS assay: blocking of recombinant laminin 411 binding to hMCAM expressing CHO cells, relative to rodent 2120, Expt#2
Readout: Fold over rodent (Blocking) (fold)
Enter your answer as a number in fold; do not include the unit.

Looking up humanized anti-MCAM antibody h2120_VH1 + h2120_VL1 (antibody, V domains shown, Human IgG1 / human kappa; also called h2120VH1VL1; Standard VH + standard VL) VH: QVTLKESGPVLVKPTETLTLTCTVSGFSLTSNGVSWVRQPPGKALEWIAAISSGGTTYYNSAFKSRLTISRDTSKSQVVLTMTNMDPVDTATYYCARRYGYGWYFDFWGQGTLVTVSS VL: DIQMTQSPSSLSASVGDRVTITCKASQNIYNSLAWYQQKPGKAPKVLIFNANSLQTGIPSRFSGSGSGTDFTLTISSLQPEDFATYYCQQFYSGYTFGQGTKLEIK , I found its Fold over rodent (Blocking) recorded as 3.5
